Origin of measurements: ChEMBL document CHEMBL4373746

# protocol.text: Fraction unbound in Wistar Han rat heart at 2 uM incubated for 6 hrs by equilibrium dialysis method
parameter: fraction unbound at 6 h, 2 µM

I = COc1ccc(Cc2cc([C@@H]3OC4(COC4)[C@@H](O)[C@H](O)[C@H]3O)ccc2C)cc1
II = O=c1[nH]c(=S)n(CCO)c2cc[nH]c12
When the recorded fraction unbound at 6 h, 2 µM values are compared, which is smaller: that of I or that of II ? Selection: enter the item's label.
I
(I: 0.076, II: 0.667)

----------
# protocol.text: Drug concentration in total liver in Wistar Han rat at 1 to 2 mg/kg, iv infused for 10 to 20 hrs by LC-MS/MS analysis
# measurement.parameters: in vivo
parameter: Ct (ng/mL)

{"compound": "CC(=O)NS(=O)(=O)c1ccc(Oc2ccc(F)c(Cl)c2)c(C(F)(F)F)c1", "Ct, ng/mL": 1.4}
{"compound": "COc1cc2c(cc1Cc1ccccc1)C[C@H](N)C(=O)N2OC(=O)N(C)C", "Ct, ng/mL": 33}
{"compound": "CC(C)(O)CS(=O)(=O)c1ccc2c(c1)nc(C(C)(C)C)n2CC1CCOCC1", "Ct, ng/mL": 320}
{"compound": "O=C(O)[C@@H]1CCN(C(=O)n2cnc(-c3ccc(-c4cnc(N5CCOCC5)nc4)cc3)n2)[C@@H](c2ccccc2)C1", "Ct, ng/mL": 1.5}
{"compound": "CN(C)C(=O)C(CCN1CCC(O)(c2ccc(Cl)cc2)CC1)(c1ccccc1)c1ccccc1 [LOPERAMIDE]", "Ct, ng/mL": 590}

----------
# protocol.text: Unbound tissue partition coefficient, ratio of drug level in skeletal muscle to plasma in Wistar Han rat at 1 to 2 mg/kg, iv infused for 10 to 20 hrs by LC-MS/MS analysis
# measurement.parameters: skeletal muscle/plasma
Reported Kp uu values for the following compounds.
Please give the numeric answer without any surrounding text.

Some compounds with known Kp uu results, for comparison:
{"compound": "CN1CC[C@H](c2c(O)cc(O)c3c(=O)cc(-c4ccccc4Cl)oc23)[C@H](O)C1", "Kp uu": 0.86}
{"compound": "COc1cc2c(cc1Cc1ccccc1)C[C@H](N)C(=O)N2OC(=O)N(C)C", "Kp uu": 0.46}

Now for the compound whose Kp uu we want.
Consider the compound shown here: CN(C)C(=O)C(CCN1CCC(O)(c2ccc(Cl)cc2)CC1)(c1ccccc1)c1ccccc1 [LOPERAMIDE] What is its recorded Kp uu?
0.11

----------
# protocol.text: Fraction unbound in Wistar Han rat white adipose tissue at 2 uM incubated for 6 hrs by equilibrium dialysis method
parameter: fraction unbound at 6 h, 2 µM

Some molecules with known fraction unbound at 6 h, 2 µM results, for comparison:
{"smiles.data": "O=C(O)[C@@H]1CCCN(C(=O)n2cnc(-c3ccc(-c4cnc(N5CCOCC5)nc4)cc3)n2)[C@H]1c1ccccc1", "fraction unbound at 6 h, 2 µM": 0.089}
{"smiles.data": "Cn1ncc(-c2ccc(C(=O)N(c3ncccc3Cl)[C@@H]3CCCNC3)cc2)c1C(=O)O", "fraction unbound at 6 h, 2 µM": 0.736}
{"smiles.data": "C[C@H]1c2cccc(CCC(C)(C)O)c2C[C@H](CO)N1C(=O)Cc1c(Cl)cccc1Cl", "fraction unbound at 6 h, 2 µM": 0.0547}
{"smiles.data": "CS(=O)(=O)c1cccc(C(=O)O)c1", "fraction unbound at 6 h, 2 µM": 0.516}
{"smiles.data": "Cc1c(C(=O)O)cnn1-c1nc(-c2cccc(C(F)(F)F)c2)cs1", "fraction unbound at 6 h, 2 µM": 0.0597}

I = Cn1cnc(-c2ccc(O[C@H]3CCN(C(=O)Cc4ccc(OC(F)(F)F)cc4)C[C@@H]3F)c(C(N)=O)c2)c1
II = O=c1[nH]c(=S)n(CCO)c2cc[nH]c12
Two entries are listed, I and II . Which one carries the higher fraction unbound at 6 h, 2 µM? Selection: enter the item's label.
II
(II: 1, I: 0.179)
